Could you please report measured viability, T/C for the items listed next?
system: KRAS patient-derived spheroids with HUVEC/MSC, viability; experiment: Anticancer human tumor 941728-121-R-J1-PDC patient-derived lung adenocarcinoma cell line growth inhibition [KRAS2]; conditions: second compound 0.1 µM; first compound 10 µM; stronger effect = lower value
Field format: number, assumed %, no unit text.

API: value(readout= viability, T/C, system= KRAS patient-derived spheroids with HUVEC/MSC, viability, query= Cn1nccc1Nc1nccc(-c2cc3c(s2)C(C)(C)N(CCN2CCOCC2)C3=O)n1 + C=CC(=O)N1CCN(c2nc(OCC3CCCN3C)nc3c2CCN(c2cccc4cccc(C)c24)C3)CC1CC#N )
28.4

API: value(readout= viability, T/C, system= KRAS patient-derived spheroids with HUVEC/MSC, viability, query= CC1(C)CCC(CN2CCN(c3ccc(C(=O)NS(=O)(=O)c4ccc(NCC5CCOCC5)c([N+](=O)[O-])c4)c(Oc4cnc5[nH]ccc5c4)c3)CC2)=C(c2ccc(Cl)cc2)C1 + C=CC(=O)N1CCN(c2nc(OCC3CCCN3C)nc3c2CCN(c2cccc4cccc(C)c24)C3)CC1CC#N )
2.8

API: value(readout= viability, T/C, system= KRAS patient-derived spheroids with HUVEC/MSC, viability, query= CC1(C)CCC(CN2CCN(c3ccc(C(=O)NS(=O)(=O)c4ccc(NCC5CCOCC5)c([N+](=O)[O-])c4)c(Oc4cnc5[nH]ccc5c4)c3)CC2)=C(c2ccc(Cl)cc2)C1 + CNCc1ccccc1-c1csc(C(C)Nc2nc(C)nc3cc(OC)c(OC)cc23)c1 )
4.92

API: value(readout= viability, T/C, system= KRAS patient-derived spheroids with HUVEC/MSC, viability, query= O=C(c1cc(Cc2n[nH]c(=O)c3ccccc23)ccc1F)N1CCN(C(=O)C2CC2)CC1 + CC1OCC2(CCN(c3cnc(Sc4ccnc(N)c4Cl)c(N)n3)CC2)C1N )
69.7

API: value(readout= viability, T/C, system= KRAS patient-derived spheroids with HUVEC/MSC, viability, query= COc1cc2nccc(Oc3ccc(NC(=O)C4(C(=O)Nc5ccc(F)cc5)CC4)cc3)c2cc1OC + COc1cc2nc(C)nc(NC(C)c3cc(N)cc(C(F)(F)F)c3)c2cc1OC1CCOC1 )
57.4

API: value(readout= viability, T/C, system= KRAS patient-derived spheroids with HUVEC/MSC, viability, query= CC1(C)CCC(CN2CCN(c3ccc(C(=O)NS(=O)(=O)c4ccc(NCC5CCOCC5)c([N+](=O)[O-])c4)c(Oc4cnc5[nH]ccc5c4)c3)CC2)=C(c2ccc(Cl)cc2)C1 + CC1OCC2(CCN(c3cnc(Sc4ccnc(N)c4Cl)c(N)n3)CC2)C1N )
2.32

API: value(readout= viability, T/C, system= KRAS patient-derived spheroids with HUVEC/MSC, viability, query= O=C(c1cc(Cc2n[nH]c(=O)c3ccccc23)ccc1F)N1CCN(C(=O)C2CC2)CC1 + C=CC(=O)N1CCN(c2nc(OCC3CCCN3C)nc3c2CCN(c2cccc4cccc(C)c24)C3)CC1CC#N )
35.4

API: value(readout= viability, T/C, system= KRAS patient-derived spheroids with HUVEC/MSC, viability, query= CCNC(=O)CC1N=C(c2ccc(Cl)cc2)c2cc(OC)ccc2-n2c(C)nnc21 (stereo not given) + C=CC(=O)N1CCN(c2nc(=O)n(-c3c(C)ccnc3C(C)C)c3nc(-c4c(O)cccc4F)c(F)cc23)C(C)C1 )
10.8

API: value(readout= viability, T/C, system= KRAS patient-derived spheroids with HUVEC/MSC, viability, query= CC(C)NCC(C(=O)N1CCN(c2ncnc3c2C(C)CC3O)CC1)c1ccc(Cl)cc1 (stereo not given) + CC1OCC2(CCN(c3cnc(Sc4ccnc(N)c4Cl)c(N)n3)CC2)C1N )
10.4

API: value(readout= viability, T/C, system= KRAS patient-derived spheroids with HUVEC/MSC, viability, query= CC1OCC2(CCN(c3cnc(Sc4ccnc(N)c4Cl)c(N)n3)CC2)C1N (stereo not given) + CNCc1ccccc1-c1csc(C(C)Nc2nc(C)nc3cc(OC)c(OC)cc23)c1 )
34

---

Could you please report measured IC50 for the items listed next?
Tested on: KRAS patient-derived spheroids with HUVEC/MSC, viability
Experiment: Anticancer human tumor 941728-121-R-J1-PDC cell line growth inhibition [KRAS2];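 note: spheroids exposed to agents for seven days before readout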
Conditions: curve of first compound; second compound 1 µM
Excerpt: Multicellular complex tumor spheroid response to RAS pathway inhibitors in combination with a targeted agents in patient-derived cell lines with oncogenic KRAS variants from multiple cancer types A high-throughput screen of multi-cell type tumor spheroids was designed to identify active combinations of targeted small molecules and KRAS pathway inhibitors. […] Compounds. […] If the clinical Cmax for an agent had not been determined, the highest concentration tested was 10 microM. […]

Name the recorded IC50 for CC(=O)Nc1cccc(-n2c(=O)n(C3CC3)c(=O)c3c(Nc4ccc(I)cc4F)n(C)c(=O)c(C)c32)c1 + CC1OCC2(CCN(c3cnc(Sc4ccnc(N)c4Cl)c(N)n3)CC2)C1N .
< 0.1 nM

Name the recorded IC50 for O=C(c1cc(Cc2n[nH]c(=O)c3ccccc23)ccc1F)N1CCN(C(=O)C2CC2)CC1 + COc1cc2nc(C)nc(NC(C)c3cc(N)cc(C(F)(F)F)c3)c2cc1OC1CCOC1 .
> 10000 nM

Name the recorded IC50 for Cn1nccc1Nc1nccc(-c2cc3c(s2)C(C)(C)N(CCN2CCOCC2)C3=O)n1 + C=CC(=O)N1CCN(c2nc(=O)n(-c3c(C)ccnc3C(C)C)c3nc(-c4c(O)cccc4F)c(F)cc23)C(C)C1 .
< 31.6 nM

Name the recorded IC50 for COc1cc2nccc(Oc3ccc(NC(=O)C4(C(=O)Nc5ccc(F)cc5)CC4)cc3)c2cc1OC + COc1cc2nc(C)nc(NC(C)c3cc(N)cc(C(F)(F)F)c3)c2cc1OC1CCOC1 .
< 31.6 nM

Name the recorded IC50 for COc1cc2nccc(Oc3ccc(NC(=O)C4(C(=O)Nc5ccc(F)cc5)CC4)cc3)c2cc1OC + C=CC(=O)N1CCN(c2nc(=O)n(-c3c(C)ccnc3C(C)C)c3nc(-c4c(O)cccc4F)c(F)cc23)C(C)C1 .
< 31.6 nM

Name the recorded IC50 for CC(=O)OC12COC1CC(O)C1(C)C(=O)C(O)C3=C(C)C(OC(=O)C(O)C(NC(=O)OC(C)(C)C)c4ccccc4)CC(O)(C(OC(=O)c4ccccc4)C21)C3(C)C (stereo not given) + C=CC(=O)N1CCN(c2nc(=O)n(-c3c(C)ccnc3C(C)C)c3nc(-c4c(O)cccc4F)c(F)cc23)C(C)C1 .
< 10 nM

Name the recorded IC50 for Cn1nccc1Nc1nccc(-c2cc3c(s2)C(C)(C)N(CCN2CCOCC2)C3=O)n1 + CC1OCC2(CCN(c3cnc(Sc4ccnc(N)c4Cl)c(N)n3)CC2)C1N .
< 31.6 nM

Name the recorded IC50 for Cn1nccc1Nc1nccc(-c2cc3c(s2)C(C)(C)N(CCN2CCOCC2)C3=O)n1 + COc1cc2nc(C)nc(NC(C)c3cc(N)cc(C(F)(F)F)c3)c2cc1OC1CCOC1 .
58.6 nM

Name the recorded IC50 for COc1cc2nccc(Oc3ccc(NC(=O)C4(C(=O)Nc5ccc(F)cc5)CC4)cc3)c2cc1OC + C=CC(=O)N1CCN(c2nc(OCC3CCCN3C)nc3c2CCN(c2cccc4cccc(C)c24)C3)CC1CC#N .
< 31.6 nM

Name the recorded IC50 for CC1OCC2(CCN(c3cnc(Sc4ccnc(N)c4Cl)c(N)n3)CC2)C1N (stereo not given) + C=CC(=O)N1CCN(c2nc(=O)n(-c3c(C)ccnc3C(C)C)c3nc(-c4c(O)cccc4F)c(F)cc23)C(C)C1 .
< 31.6 nM

---

tested on: KRAS patient-derived spheroids with HUVEC/MSC, viability; assay: Anticancer human tumor 941728-121-R-J1-PDC cell line growth inhibition [KRAS2]; details: second compound 10 µM; first compound 0.01 µM; stronger effect = lower value;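 note: spheroids exposed to agents for seven days before readout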
Quantity Name: viability, T/C (%)
Field format: number, assumed %, no unit text.

Name the recorded viability, T/C for Cn1ncnc1[C@H]1c2n[nH]c(=O)c3cc(F)cc(c23)N[C@@H]1c1ccc(F)cc1 + CC1OCC2(CCN(c3cnc(Sc4ccnc(N)c4Cl)c(N)n3)CC2)C1N .
18.9

Name the recorded viability, T/C for CC(=O)OC12COC1CC(O)C1(C)C(=O)C(O)C3=C(C)C(OC(=O)C(O)C(NC(=O)OC(C)(C)C)c4ccccc4)CC(O)(C(OC(=O)c4ccccc4)C21)C3(C)C (stereo not given) + C=CC(=O)N1CCN(c2nc(=O)n(-c3c(C)ccnc3C(C)C)c3nc(-c4c(O)cccc4F)c(F)cc23)C(C)C1 .
25.9

Name the recorded viability, T/C for CC1COCCN1c1cc(-c2ccnn2C)c2ccnc(-c3ccn[nH]3)c2n1 (stereo not given) + C=CC(=O)N1CCN(c2nc(=O)n(-c3c(C)ccnc3C(C)C)c3nc(-c4c(O)cccc4F)c(F)cc23)C(C)C1 .
33.3

Name the recorded viability, T/C for CN(C)C/C=C/C(=O)Nc1cc2c(Nc3ccc(F)c(Cl)c3)ncnc2cc1O[C@H]1CCOC1 + C=CC(=O)N1CCN(c2nc(=O)n(-c3c(C)ccnc3C(C)C)c3nc(-c4c(O)cccc4F)c(F)cc23)C(C)C1 .
17.7

Name the recorded viability, T/C for Cn1ncnc1[C@H]1c2n[nH]c(=O)c3cc(F)cc(c23)N[C@@H]1c1ccc(F)cc1 + CNCc1ccccc1-c1csc(C(C)Nc2nc(C)nc3cc(OC)c(OC)cc23)c1 .
0.09

Name the recorded viability, T/C for CC(=O)Nc1cccc(-n2c(=O)n(C3CC3)c(=O)c3c(Nc4ccc(I)cc4F)n(C)c(=O)c(C)c32)c1 + CNCc1ccccc1-c1csc(C(C)Nc2nc(C)nc3cc(OC)c(OC)cc23)c1 .
0.14

Name the recorded viability, T/C for CC(C)n1nc(-c2ccc3oc(N)nc3c2)c2c(N)ncnc21 + CC1OCC2(CCN(c3cnc(Sc4ccnc(N)c4Cl)c(N)n3)CC2)C1N .
4.41

Name the recorded viability, T/C for CC1COCCN1c1cc(-c2ccnn2C)c2ccnc(-c3ccn[nH]3)c2n1 (stereo not given) + CC1OCC2(CCN(c3cnc(Sc4ccnc(N)c4Cl)c(N)n3)CC2)C1N .
25.4

Name the recorded viability, T/C for CN(C)C/C=C/C(=O)Nc1cc2c(Nc3ccc(F)c(Cl)c3)ncnc2cc1O[C@H]1CCOC1 + CNCc1ccccc1-c1csc(C(C)Nc2nc(C)nc3cc(OC)c(OC)cc23)c1 .
0.08

Name the recorded viability, T/C for CC(=O)OC12COC1CC(O)C1(C)C(=O)C(O)C3=C(C)C(OC(=O)C(O)C(NC(=O)OC(C)(C)C)c4ccccc4)CC(O)(C(OC(=O)c4ccccc4)C21)C3(C)C (stereo not given) + CC1OCC2(CCN(c3cnc(Sc4ccnc(N)c4Cl)c(N)n3)CC2)C1N .
26.5
